Experiment: Human HepG2 cell viability assay in 384 well format
Assay type: toxicity, cell-based
Parameters: dose 125 nL, time 70.5 hour; concentration not given beside the values
Conditions: HepG2 cells, read-out: Inhibition
readout.label: cytotoxicity at 70.5 h (%)
Quick note: give the figure in %, leave out the unit.

N#Cc1ccc(C(=O)N(C2CC2)C2CC(=O)NC2=O)cc1 (stereo not drawn) : -8.96
Cc1c(F)cccc1NC(=O)N(C(C)CS(C)(=O)=O)C1CC1 (stereo not drawn) : -4.32
CS(=O)(=O)NCCCN1CCCC1c1cccc(Br)c1 (stereo not drawn) : -9.99
CC(C)S(=O)(=O)N1CCC(c2[nH]ncc2S(C)(=O)=O)C1 (stereo not drawn) : -2.31
OCCCN1CCc2onc(C(c3ccccc3)c3ccccc3)c2C1 : 6.85

Item under review: O=C(NCCc1nnc2n1CCC2)NCC1(c2ccc(F)cc2)CC1 . Reported cytotoxicity at 70.5 h?
-7.03

Report cytotoxicity at 70.5 h for CC(=O)Nc1cc(CCC2CCN(C(=O)c3ccccn3)CC2)ccn1 please.
-14.2

Which measured cytotoxicity at 70.5 h value corresponds to CN(C)CC(=O)N1CCC2(CCN(Cc3ccccn3)C2=O)C1 (stereo not drawn) ?
-22.9
